target: Beta-secretase 1 (Homo sapiens); test: Activity of human recombinant BACE1 after 24 hrs
Calls of active or inactive are those of the source. The rule behind the calls is not given here. Where a SMILES comes first, the peptide text is derived from it. [ ]: non-standard residue; d: D form. The star is where a group is joined. Orotyl(5-F) = O=C(c1[nH]c(=O)[nH]c(=O)c1F)*; Dap = NC[C@H](N)C(=O)O
Select the correct class. Options are label 1 = active, label 0 = inactive and nothing else.

Prompt: Dear colleague, could you share the recorded outcome for CC(C)C[C@H](NC(=O)[C@@H](NC(=O)[C@@H](N)CNC(=O)c1[nH]c(=O)[nH]c(=O)c1F)C(C)C)C(=O)N[C@@H](Cc1ccccc1)C(=O)N[C@H](CO)C(=O)O when you have a moment?
Response: label 0

Prompt: What did this assay record as the result for CC(C)C[C@H](NC(=O)[C@@H](NC(=O)[C@@H](N)CNC(=O)c1[nH]c(=O)[nH]c(=O)c1F)C(C)C)C(=O)N[C@@H](Cc1ccccc1)C(=O)N[C@@H](CO)C(=O)O ?
Response: label 0

Prompt: Hey, what did the test say about CC(C)C[C@H](NC(=O)[C@@H](NC(=O)[C@@H](N)CNC(=O)c1[nH]c(=O)[nH]c(=O)c1F)C(C)C)C(=O)N[C@@H](Cc1ccccc1)C(=O)O (H-[Dap](Orotyl(5-F))VLF-OH) ?
Response: label 1

Prompt: Look up the recorded call for CC(C)C[C@H](NC(=O)[C@@H](NC(=O)[C@@H](N)CNC(=O)c1[nH]c(=O)[nH]c(=O)c1F)C(C)C)C(=O)N[C@@H](Cc1ccccc1)C(=O)N[C@H](CC(N)=O)C(=O)O in this test.
Response: label 0

Prompt: Recorded test call requested for CC(C)C[C@H](NC(=O)[C@@H](NC(=O)[C@@H](N)CNC(=O)c1[nH]c(=O)[nH]c(=O)c1F)C(C)C)C(=O)N[C@@H](Cc1ccccc1)C(=O)N[C@@H](CC(N)=O)C(=O)O
Response: label 0

* * *

Provide the recorded IC50 for the entries that follow.
biological target: Beta-secretase 1 (Homo sapiens); experiment: Inhibition of human recombinant BACE1 using 7-methoxycoumarin-4-yl)acetyl-Ser-Glu-Val-Asn-Leu*Asp-Ala- Glu-Phe-Arg-Lys(2,4-dinitrophenyl)-Arg-Arg-NH2 as substrate by FRET assay
// units = nM; emit number, no label

Prompt: Check Beta-secretase 1 (Homo sapiens) data and give IC50 for CC(C)C[C@H](NC(=O)[C@@H](NC(=O)[C@@H](N)CNC(=O)c1[nH]c(=O)[nH]c(=O)c1F)C(C)C)C(=O)N[C@@H](Cc1ccccc1)[C@@H](O)C(=O)Nc1cccc(C(=O)O)c1 .
Response: 26

Prompt: Lab note: record IC50 of CC(C)C[C@H](NC(=O)[C@@H](NC(=O)[C@@H](N)CNC(=O)c1[nH]c(=O)[nH]c(=O)c1F)C(C)C)C(=O)N[C@@H](Cc1ccccc1)C(=O)N[C@@H](C(=O)O)C(C)C tested on Beta-secretase 1 (Homo sapiens).
Response: 82

Prompt: Write down the reported IC50 (system: Beta-secretase 1 (Homo sapiens)) of CC(C)[C@H](NC(=O)[C@@H](N)CNC(=O)c1[nH]c(=O)[nH]c(=O)c1F)C(=O)N[C@@H](CC1CCCCC1)C(=O)N[C@@H](Cc1ccccc1)C(=O)N[C@H](CO)C(=O)O
Response: 163

Prompt: With Beta-secretase 1 (Homo sapiens) as the test system, provide measured IC50 for this compound: CC(C)[C@H](NC(=O)[C@@H](N)CNC(=O)c1[nH]c(=O)[nH]c(=O)c1F)C(=O)N[C@@H](CC1CCCCC1)C(=O)N[C@@H](Cc1ccccc1)C(=O)N[C@H](CC(N)=O)C(=O)O
Response: 141

Prompt: Give IC50 for this entry on Beta-secretase 1 (Homo sapiens): CC(C)C[C@H](NC(=O)[C@@H](NC(=O)[C@@H](N)CNC(=O)c1[nH]c(=O)[nH]c(=O)c1F)C(C)C)C(=O)N[C@@H](Cc1ccccc1)C(=O)N[C@H](CC(N)=O)C(=O)O
Response: 86

* * *

target: Beta-secretase 1 (Homo sapiens, UniProt P56817); assay: Inhibition of human recombinant BACE1 using 7-methoxycoumarin-4-yl)acetyl-Ser-Glu-Val-Asn-Leu*Asp-Ala- Glu-Phe-Arg-Lys(2,4-dinitrophenyl)-Arg-Arg-NH2 as substrate at 2 uM by FRET assay
Sequence (P56817 whole entry): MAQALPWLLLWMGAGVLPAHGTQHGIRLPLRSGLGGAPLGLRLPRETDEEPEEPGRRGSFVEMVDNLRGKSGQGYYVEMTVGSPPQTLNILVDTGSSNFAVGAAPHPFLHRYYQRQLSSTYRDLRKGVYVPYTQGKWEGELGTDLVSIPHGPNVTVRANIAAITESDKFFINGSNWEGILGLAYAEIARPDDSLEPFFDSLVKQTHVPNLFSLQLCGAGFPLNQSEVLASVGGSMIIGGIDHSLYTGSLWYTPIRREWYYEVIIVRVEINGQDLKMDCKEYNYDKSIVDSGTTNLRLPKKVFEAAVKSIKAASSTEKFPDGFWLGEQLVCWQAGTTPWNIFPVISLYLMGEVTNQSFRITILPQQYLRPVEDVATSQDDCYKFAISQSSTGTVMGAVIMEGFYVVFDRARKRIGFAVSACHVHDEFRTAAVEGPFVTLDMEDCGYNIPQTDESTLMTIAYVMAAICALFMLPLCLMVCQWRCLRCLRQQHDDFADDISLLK
For each of the molecules below, state its inhibition.
State just the number; it will be interpreted in %.

Prompt: Please look at this molecule and report its inhibition: CC(C)C[C@H](NC(=O)[C@@H](NC(=O)[C@@H](N)CCC(=O)O)C(C)C)C(=O)N[C@@H](Cc1ccccc1)C(=O)N[C@H](CN)C(=O)N[C@@H](C)C(=O)N[C@@H](CCC(=O)O)C(=O)N[C@@H](Cc1ccccc1)C(=O)O
Response: 15

Prompt: Please look at this molecule and report its inhibition: CC(C)C[C@H](NC(=O)[C@@H](NC(=O)[C@@H](N)CNC(=O)c1[nH]c(=O)[nH]c(=O)c1F)C(C)C)C(=O)N[C@@H](Cc1ccccc1)C(=O)N[C@@H](CC(N)=O)C(=O)O
Response: 89

Prompt: Identify the reported inhibition for the following entry. CC(C)C[C@H](NC(=O)[C@@H](NC(=O)[C@@H](N)CCC(=O)O)C(C)C)C(=O)N[C@@H](Cc1ccccc1)C(=O)N[C@@H](CN)C(=O)N[C@@H](C)C(=O)N[C@@H](CCC(=O)O)C(=O)N[C@@H](Cc1ccccc1)C(=O)O
Response: 7

Prompt: Specify inhibition for CC(C)[C@H](NC(=O)[C@@H](N)CNC(=O)c1[nH]c(=O)[nH]c(=O)c1F)C(=O)N[C@@H](CC1CCCCC1)C(=O)N[C@@H](Cc1ccccc1)C(=O)N[C@H](CO)C(=O)O and stop.
Response: 92

* * *

molecular target: Beta-secretase 1 (Homo sapiens, UniProt P56817); test: Inhibition of human recombinant BACE1 using 7-methoxycoumarin-4-yl)acetyl-Ser-Glu-Val-Asn-Leu*Asp-Ala- Glu-Phe-Arg-Lys(2,4-dinitrophenyl)-Arg-Arg-NH2 as substrate at 2 uM by FRET assay
Where a SMILES comes first, the peptide text is derived from it. [ ]: non-standard residue; d: D form. The star is where a group is joined. Orotyl(5-F) = O=C(c1[nH]c(=O)[nH]c(=O)c1F)*; Dap = NC[C@H](N)C(=O)O
recorded_endpoint: inhibition (%)
State the answer as a number, implicitly in %.

Prompt: Consider the compound CC(C)C[C@H](NC(=O)[C@@H](NC(=O)[C@@H](N)CNC(=O)c1[nH]c(=O)[nH]c(=O)c1F)C(C)C)C(=O)N[C@@H](Cc1ccccc1)C(=O)O (H-[Dap](Orotyl(5-F))VLF-OH) . State its measured inhibition.
Response: 90

Prompt: Check the records and state inhibition for CC(C)[C@H](NC(=O)[C@@H](N)CCC(=O)O)C(=O)N[C@@H](CCCCN)C(=O)N[C@@H](Cc1ccccc1)C(=O)O (H-EVKF-OH)
Response: 10

Prompt: Recall and state the measured inhibition for CC(C)C[C@H](NC(=O)[C@@H](NC(=O)[C@@H](N)CCC(=O)O)C(C)C)C(=O)N[C@@H](Cc1ccccc1)C(=O)N[C@H](CC(N)=O)C(=O)O .
Response: 29

Prompt: Kindly indicate its recorded inhibition. Item: CC(C)C[C@H](NC(=O)[C@@H](NC(=O)[C@@H](N)CCC(=O)O)C(C)C)C(=O)N[C@@H](Cc1ccccc1)C(=O)N[C@H](CO)C(=O)O
Response: 23

Prompt: Let me know recorded inhibition for CC(C)C[C@H](NC(=O)[C@@H](NC(=O)[C@@H](N)CCC(=O)O)C(C)C)C(=O)N[C@@H](Cc1ccccc1)C(=O)N[C@@H](CO)C(=O)N[C@@H](C)C(=O)N[C@@H](CCC(=O)O)C(=O)N[C@@H](Cc1ccccc1)C(=O)O , thanks.
Response: 6

Prompt: In one line, give reported inhibition of the entry CC(C)[C@H](NC(=O)[C@@H](N)CNC(=O)c1[nH]c(=O)[nH]c(=O)c1F)C(=O)N[C@@H](CC1CCCCC1)C(=O)N[C@@H](Cc1ccccc1)C(=O)N[C@H](CC(N)=O)C(=O)O .
Response: 92

Prompt: Name the recorded inhibition of the item CC(C)C[C@H](NC(=O)[C@@H](NC(=O)[C@@H](N)CNC(=O)c1[nH]c(=O)[nH]c(=O)c1F)C(C)C)C(=O)N[C@@H](Cc1ccccc1)C(=O)N[C@@H](C(=O)O)C(C)C in your answer.
Response: 94

Prompt: Indicate the recorded inhibition value for this compound: CC(C)C[C@H](NC(=O)[C@@H](NC(=O)[C@@H](N)CNC(=O)c1[nH]c(=O)[nH]c(=O)c1F)C(C)C)C(=O)N[C@@H](Cc1ccccc1)C(=O)N[C@@H](CO)C(=O)O
Response: 85

Prompt: Give a short answer stating reported inhibition for CC(C)C[C@H](NC(=O)[C@@H](NC(=O)[C@@H](N)CNC(=O)c1[nH]c(=O)[nH]c(=O)c1F)C(C)C)C(=O)N[C@@H](Cc1ccccc1)C(=O)N[C@H](C)C(=O)O .
Response: 93

Prompt: Write down inhibition measured for item CC(C)C[C@H](NC(=O)[C@@H](NC(=O)[C@@H](N)CNC(=O)c1[nH]c(=O)[nH]c(=O)c1F)C(C)C)C(=O)N[C@@H](Cc1ccccc1)C(=O)N[C@H](CO)C(=O)O
Response: 94

Prompt: Please give the documented inhibition of CC(C)C[C@H](NC(=O)[C@@H](NC(=O)[C@@H](N)CNC(=O)c1[nH]c(=O)[nH]c(=O)c1F)C(C)C)C(=O)N[C@@H](Cc1ccccc1)C(=O)N[C@H](CC(N)=O)C(=O)O
Response: 95
